Target Of Assay: Norepinephrine transporter (Rattus norvegicus, UniProt Q9WTR4)
Sequence (Q9WTR4 whole entry): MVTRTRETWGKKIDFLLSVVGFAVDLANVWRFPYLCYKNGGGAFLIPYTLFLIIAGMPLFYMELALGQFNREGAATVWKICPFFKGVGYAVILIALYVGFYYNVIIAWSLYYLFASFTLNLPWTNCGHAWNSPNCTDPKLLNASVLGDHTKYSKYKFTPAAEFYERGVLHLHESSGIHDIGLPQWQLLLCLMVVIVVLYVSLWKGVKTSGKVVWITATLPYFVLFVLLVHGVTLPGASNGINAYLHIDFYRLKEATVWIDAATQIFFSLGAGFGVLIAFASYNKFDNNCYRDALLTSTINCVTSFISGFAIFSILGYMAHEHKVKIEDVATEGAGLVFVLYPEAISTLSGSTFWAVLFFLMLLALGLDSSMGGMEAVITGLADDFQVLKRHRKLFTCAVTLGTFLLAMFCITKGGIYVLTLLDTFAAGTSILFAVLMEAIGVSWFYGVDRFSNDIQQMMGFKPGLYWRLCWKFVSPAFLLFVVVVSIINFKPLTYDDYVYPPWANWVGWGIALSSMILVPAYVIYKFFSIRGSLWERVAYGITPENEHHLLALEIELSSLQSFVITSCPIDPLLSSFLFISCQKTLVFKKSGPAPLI
Method Summary: Ability to inhibit high affinity reuptake of [3H]-NE (Norepinephrine transporter) into nerve ending synaptosomes prepared from brain regions
Each entry below lists one item and its recorded Ki value.

For orientation, consider the following solved cases.
# get_value(readout='Ki', item= Clc1ccc(/C=C2\CN3C4CCC3C(/C=C\c3ccccc3)C2C4)cc1Cl (stereo not given) ) 2.79 µM

# get_value(readout='Ki', item= O=C(Oc1ccccc1)C1C2CC3CCC1N3C/C2=C\c1ccc(Cl)c(Cl)c1 (stereo not given) ) 2.41 µM

# get_value(readout='Ki', item= CC(C)OC(=O)C1C2CC3CCC1N3C/C2=C\c1ccc(Cl)c(Cl)c1 (stereo not given) ) 0.325 µM

# get_value(readout='Ki', item= O=C(OCC1C2CC3CCC1N3C/C2=C\c1cccc(Cl)c1)c1ccccc1 (stereo not given) ) 6.58 µM

# get_value(readout='Ki', item= O=C(CCCCCCCCCC(=O)OCC1C2CC3CCC1N3C/C2=C\c1ccc(Cl)c(Cl)c1)OCC1C2CC3CCC1N3C/C2=C\c1ccc(Cl)c(Cl)c1 (stereo not given) ) > 10 µM

# get_value(readout='Ki', item= O=C(OCC1C2CC3CCC1N3C/C2=C\c1ccc(I)c(Cl)c1)c1ccccc1 (stereo not given) ) > 10 µM

# get_value(readout='Ki', item= O=C(OCC1C2CC3CCC1N3C/C2=C\c1ccc(I)cc1)c1ccccc1 (stereo not given) ) 8.19 µM

# get_value(readout='Ki', item= COC(=O)C1C2CC3CCC1N3C/C2=C\c1ccc(I)cc1Cl (stereo not given) ) 0.508 µM

Next:
# get_value(readout='Ki', item= O=C(OCC1C2CC3CCC1N3C/C2=C\c1ccc(Cl)c(Cl)c1)c1ccccc1 (stereo not given) ) 3.07 µM

# get_value(readout='Ki', item= CNC(=O)C1C2CC3CCC1N3C/C2=C\c1ccc(Cl)c(Cl)c1 (stereo not given) ) 0.417 µM

---

Method Summary: Uptake ratio Ki of dopamine relative to serotonin (5-HT) at monoamine transporter
Cut-off 400 on Ratio, inclusive. At or above means Y; below means N.

Example results:
Is it the case that CCC(=O)C1C2CC3CCC1N3C/C2=C\c1ccc(Cl)c(Cl)c1 (stereo unspecified) has Ratio reaching or exceeding 400? Y

Is it the case that COC(=O)C1C2CC3CCC1N3C/C2=C\c1ccc(Cl)c(Cl)c1 (stereo unspecified) has Ratio reaching or exceeding 400? N

Is it the case that O=C(OCC1C2CC3CCC1N3C/C2=C\c1ccc(Br)cc1)c1ccccc1 (stereo unspecified) has Ratio reaching or exceeding 400? Y

Is it the case that O=C(OCC1C2CC3CCC1N3C/C2=C\c1cccc(Cl)c1)c1ccccc1 (stereo unspecified) has Ratio reaching or exceeding 400? N

Is it the case that COC(=O)C1C2CC3CCC1N3C/C2=C\c1cc2ccccc2c2ccccc12 (stereo unspecified) has Ratio reaching or exceeding 400? N

Please find the next molecule below.
Is it the case that CC(=O)OCC1C2CC3CCC1N3C/C2=C\c1cccc(Cl)c1 (stereo unspecified) has Ratio reaching or exceeding 400? N

---

Target Of Assay: Sodium-dependent dopamine transporter (Rattus norvegicus, UniProt P23977)
Sequence (P23977 whole entry): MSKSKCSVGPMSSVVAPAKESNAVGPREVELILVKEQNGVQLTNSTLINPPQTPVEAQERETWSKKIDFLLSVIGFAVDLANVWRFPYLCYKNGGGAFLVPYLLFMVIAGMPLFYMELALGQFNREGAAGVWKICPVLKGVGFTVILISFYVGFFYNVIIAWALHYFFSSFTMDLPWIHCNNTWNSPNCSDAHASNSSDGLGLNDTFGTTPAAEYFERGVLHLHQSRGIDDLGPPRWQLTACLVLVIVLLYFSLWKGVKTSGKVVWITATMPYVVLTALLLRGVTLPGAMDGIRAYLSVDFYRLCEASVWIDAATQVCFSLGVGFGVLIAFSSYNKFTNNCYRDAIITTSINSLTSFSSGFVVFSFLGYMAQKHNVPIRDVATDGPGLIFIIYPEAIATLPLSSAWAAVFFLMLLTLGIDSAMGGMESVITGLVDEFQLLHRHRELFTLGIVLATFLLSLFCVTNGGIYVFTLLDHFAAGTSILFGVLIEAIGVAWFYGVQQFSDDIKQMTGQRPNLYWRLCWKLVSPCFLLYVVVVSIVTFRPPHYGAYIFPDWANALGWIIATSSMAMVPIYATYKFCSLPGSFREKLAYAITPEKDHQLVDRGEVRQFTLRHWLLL
Method Summary: Ability to inhibit high affinity reuptake of [3H]DA from dopamine transporter into nerve endings synaptosomes
Each entry below lists one item and its recorded Ki value.
// return numeric value only (unit: µM, not printed)

# get_value(readout='Ki', item= CC(=O)OCC1C2CC3CCC1N3C/C2=C\c1ccc(Cl)c(Cl)c1 (stereo not given) ) 1.87

# get_value(readout='Ki', item= CON(C)C(=O)C1C2CC3CCC1N3C/C2=C\c1ccc(Cl)c(Cl)c1 (stereo not given) ) 8.62

# get_value(readout='Ki', item= CC(C)OC(=O)C1C2CC3CCC1N3C/C2=C\c1ccc(Cl)c(Cl)c1 (stereo not given) ) 1.29
